Cited source: PubChem BioAssay AID844

test system: MRP1 cells, doxorubicin viability shift, 10 uM compound; assay: viability protection against doxorubicin, MRP-1 line – cell-based, doxorubicin EC50 shift, dose response (AID 844)
# true = fold increase in Dox EC50 below 0.8 (exclusive); false = fold increase in Dox EC50 at/above 0.8

# Compound, Tgt, Label Value
rows = [
    ("O=C(NCCc1ccc(Cl)cc1)c1cnc2n(c1=O)CCS2", "MRP1 cells, doxorubicin viability shift, 10 uM compound", "true"),
    ("CCC(Sc1nc(-c2ccccc2)c(C#N)c(=O)[nH]1)C(=O)Nc1cc(C)on1 (stereo not drawn)", "MRP1 cells, doxorubicin viability shift, 10 uM compound", "false"),
    ("Cc1onc(-c2c(F)cccc2Cl)c1C(=O)Nc1sc2c(c1C#N)CCC(C(C)(C)C)C2 (stereo not drawn)", "MRP1 cells, doxorubicin viability shift, 10 uM compound", "true"),
    ("Cc1ccc(-c2nc(C3CCCN(S(=O)(=O)c4ccc(C)cc4)C3)no2)cc1 (stereo not drawn)", "MRP1 cells, doxorubicin viability shift, 10 uM compound", "false"),
    ("O=C(NNC1=C(C(=O)C(F)(F)F)CCC1)c1cccc(Cl)c1", "MRP1 cells, doxorubicin viability shift, 10 uM compound", "false"),
]

Please look at the following compound next.
Please state whether fold increase in Dox EC50 is below 0.8 for Cc1noc(/C=C/N(C)C)c1S(=O)(=O)N1CCCC(C(=O)NCc2ccc(F)cc2)C1 (stereo not drawn)
false

---

system: MRP1 cells, doxorubicin viability shift, 10 uM compound; assay: viability protection against doxorubicin, MRP-1 line – cell-based, doxorubicin EC50 shift, dose response (AID 844)
Assign a class from recorded fold increase in Dox EC50; defined classes: lower bin = under 0.7, middle bin = from 0.7 up to 1, upper bin = 1 and over

Please indicate the class for Cc1ccc(C(=O)CSc2n[nH]c(-c3ccco3)n2)cc1C based on its fold increase in Dox EC50.
middle bin

Please indicate the class for CC(=O)N1CCN=C1SCc1ccc(Br)cc1 based on its fold increase in Dox EC50.
middle bin

Please indicate the class for CCOc1cc(/C=C2\SC(=Nc3ccccc3)N(c3ccccc3)C2=O)ccc1OCC(=O)O based on its fold increase in Dox EC50.
middle bin

Please indicate the class for COC(=O)c1ccc(OC)c(CSc2nnc(COc3ccc(Cl)cc3)o2)c1 based on its fold increase in Dox EC50.
upper bin

Please indicate the class for Cc1ccc(C)c(N2CCN(C(=O)Cc3ccc(-n4c(=O)[nH]c5ccsc5c4=O)cc3)CC2)c1 based on its fold increase in Dox EC50.
lower bin

---

tested on: MRP1 cells, doxorubicin viability shift, 10 uM compound; test: viability protection against doxorubicin, MRP-1 line – cell-based, doxorubicin EC50 shift, dose response (AID 844)
Each item that follows carries a reported fold increase in Dox EC50.
Number only, no unit.

# Molecule, fold increase in Dox EC50
records = [
    ("CC(=O)c1ccc(NC(=O)CCCN2C(=O)/C(=C/C(C)=C/c3ccccc3)SC2=S)cc1", 0.19),
    ("Cc1cc(N2CCN(c3cccc(C)c3C)CC2)nc(-c2ccccc2)n1", 0.99),
    ("O=C(Cc1ccccc1)Nc1ccccc1Oc1ccccc1", 0.69),
]

// lookup fold increase in Dox EC50 for CCc1ccc(/C(C)=N/Nc2cc(Cl)nc(C)n2)cc1
0.69

// lookup fold increase in Dox EC50 for COc1ccc(-c2nc(-c3cccc(C)c3)no2)cc1OC
0.69

// lookup fold increase in Dox EC50 for Cc1c(C)n(C)c2ccc(C(=O)NCc3cccs3)cc12
1.06

// lookup fold increase in Dox EC50 for COc1cc(SC)ccc1C(=O)NCCOc1ccc(Cl)cc1
1.36

// lookup fold increase in Dox EC50 for COc1ccc(/C=N/Nc2nc(-c3ccc(Cl)cc3)cc(C(F)(F)F)n2)cc1OC
0.35

// lookup fold increase in Dox EC50 for Cc1cc(C)nc(NN2C(=O)/C(=C/c3ccc(O)cc3)SC2=S)n1
1.39

// lookup fold increase in Dox EC50 for O=C1CC(N2CCC(O)(c3ccc(Br)cc3)CC2)C(=O)N1c1ccc(Cl)cc1 (stereo unspecified)
1.37

// lookup fold increase in Dox EC50 for CNc1sc(C(=O)c2cccs2)c(N)c1-c1nc2ccccc2s1
0.56
